Values compiled from ChEMBL document CHEMBL1141956.

IC50 overview
- TARGET_OR_TEST_SYSTEM: Proto-oncogene tyrosine-protein kinase Src (Homo sapiens, UniProt P12931)
- Sequence (P12931 2-536 limits assumed): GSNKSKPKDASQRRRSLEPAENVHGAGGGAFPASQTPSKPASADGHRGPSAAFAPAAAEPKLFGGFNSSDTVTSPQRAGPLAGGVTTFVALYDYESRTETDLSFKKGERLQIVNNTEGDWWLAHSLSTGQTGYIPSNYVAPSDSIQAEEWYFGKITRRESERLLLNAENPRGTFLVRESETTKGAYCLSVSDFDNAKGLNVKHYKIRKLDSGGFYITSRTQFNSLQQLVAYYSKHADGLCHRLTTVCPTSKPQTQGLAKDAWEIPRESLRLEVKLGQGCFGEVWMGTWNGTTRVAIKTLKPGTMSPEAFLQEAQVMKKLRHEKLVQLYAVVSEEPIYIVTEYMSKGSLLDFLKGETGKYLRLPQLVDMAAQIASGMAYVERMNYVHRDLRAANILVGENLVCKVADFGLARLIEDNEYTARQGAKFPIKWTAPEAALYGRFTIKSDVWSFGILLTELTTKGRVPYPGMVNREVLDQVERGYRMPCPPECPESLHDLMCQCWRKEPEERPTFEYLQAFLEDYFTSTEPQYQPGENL
Express your answer in nM, writing the number without its unit.

Entry COc1ccc(Cl)c(Nc2ncnc3cc(OCCN4CCN(C)CC4)cc(OC(C)C)c23)n1 ; IC50 = 7

Entry COc1ccc(Cl)c(Nc2ncnc3cc(OCCN4CCN(C(C)=O)CC4)cc(OC(C)C)c23)n1 ; IC50 = 10
